Ref: ChEMBL document CHEMBL1149292

- assay remarks: Plasma concentration in femoral artery cannulated Lewis rat at 3 mg/kg, po after 2 hrs
- Type: ADME, organism-based
- Design: dose 3 mg/kg, route oral

- chem smiles: "O=C(O)C1CN(Cc2ccc(OCc3cc(-c4ccccc4)c(C(F)(F)F)s3)cc2)C1"
  concentration at 2 h (nM): 310

====

Below, each entry is listed with its recorded Cmax.
- System: Canis familiaris
- assay remarks: Cmax in Beagle dog at 1 mg/kg, po and 0.5 mg/kg, iv
- Assay type: ADME, organism-based, Canis lupus familiaris
- test conditions: in vivo

- chem smiles: "O=C(O)C1CN(Cc2ccc(OCc3cc(-c4ccccc4)c(C(F)(F)F)s3)cc2)C1"
  Cmax: "1300 nM"
- chem smiles: "Cc1cc(CN2CC(C(=O)O)C2)ccc1OCc1cc(-c2ccccc2)c(C(F)(F)F)s1"
  Cmax: "3200 nM"
